B1: Twister Ribozyme (parent)
chain: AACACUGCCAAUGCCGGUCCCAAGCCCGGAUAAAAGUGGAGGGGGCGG

Variants of: B1
procedure-details: self-cleavage, relative activity (ratio to wild type); higher = more cleavage; co-transcriptional
Measured self-cleavage accompanies every entry in the list below.
API doc: respond with a numeric literal and nothing else, no unit.

// below: answered variants
input: # self-cleavage lookup, item AACACUGCCAAUGCCGGUCCCAAGCCCGGAUAAAGGUGGAGUGGGCGG [A35G G42U]
output: 0.133

input: For the variant shown here, AAUACUGCCAAUGCCGGUCCCAAGACCGGAUAAAAGUGGAGGGGGCGG [C3U C25A] , give the reported self-cleavage.
output: 0.0634

input: Return reported self-cleavage; argument: AACAGUGCCAAUGCCGGUCCCAAGCCCGGUUAAAAGUGGAGGGGGCGG [C5G A30U]
output: 0.883

input: Query (variant): AACACUCCCAAUGCCGGUCCCAAGCCCGGUUAAAAGUGGAGGGGGCGG [G7C A30U] ; field requested: self-cleavage
output: 0.0697

Further cases:
input: Recorded self-cleavage of AACACUGCCAAUGCCGCUCCCAAGCCCGGAUAAAAAUGGAGGGGGCGG [G17C G36A] , please.
output: 0.0801

input: Give its self-cleavage value. Item: AACACUGCCAAUGCCGGUCCCAAGCCCGGCUAAAAGUGGAGGGGCCGG [A30C G45C]
output: 0.266

input: Consider the variant AAUACUGCCAAUGCCGGUCCCAAGCCCGGCUAAAAGUGGAGGGGGCGG [C3U A30C] and give its measured self-cleavage.
output: 0.335

input: State the recorded self-cleavage for this entry: AACACUGCCAAUGCCGUUCCCAAGCCCGGAUAUAAGUGGAGGGGGCGG [G17U A33U]
output: 0.257

input: What self-cleavage value was documented for this variant, AUCACUGCCAAUGCCGGUCCCAAGCCCGGAUAAAAGUGGAGGGGGUGG [A2U C46U] ?
output: 0.723

input: Need self-cleavage, item AACACUGCCAAUGCCGGUCCCAUGCCCGUAUAAAAGUGGAGGGGGCGG [A23U G29U]
output: 0.315

input: Name the reported self-cleavage value associated with the variant AACACUGCCAAUGCCGGUCCUAAGCCCGGGUAAAAGUGGAGGGGGCGG [C21U A30G]
output: 0.097

input: // query self-cleavage value for entry AACACUGCCACUGCCGGUCCCAACCCCGGAUAAAAGUGGAGGGGGCGG [A11C G24C]
output: 0.0648

input: Which self-cleavage reading was recorded for the variant AACACUGCCAAUGCCGGUUCCAAGCCCGGAUAAAAAUGGAGGGGGCGG [C19U G36A] ?
output: 0.167

input: Looking for the measured self-cleavage of AACACUGCCAAUACCGGUCCCAAGCCCAGAUAAAAGUGGAGGGGGCGG [G13A G28A] , can you help?
output: 0.579

input: Which self-cleavage value is on record for AGCACUGCCAAUGCCGGUCACAAGCCCGGAUAAAAGUGGAGGGGGCGG [A2G C20A] ?
output: 0.0649

input: Entry under review: AACACUGACAAUGCCGGUCCCAAGCCCGGAUAAAAGUGGAGGGGGAGG [C8A C46A] . Reported self-cleavage?
output: 0.167

input: Need self-cleavage, item AACACUGCCAAUUCCGGUCCCAAGCCCGGAUAAACGUGGAGGGGGCGG [G13U A35C]
output: 0.587

input: # self-cleavage lookup, item AACACUGCCAAUGCCGGUCCCAAGCCCGGAUAACAGUGGAGGGGGCGG [A34C]
output: 0.378

input: # query: self-cleavage of entry AACACUGCCAAUGCCGUUCCCAAGCCCGGAUAAAAGUGGAGGGGGCGU [G17U G48U]
output: 0.316

input: Recorded self-cleavage of AACACUGCCAAUGCCGGUCUCAAGCCCGGAUAAAAGUGGAGGCGGCGG [C20U G43C] , please.
output: 0.125

input: Please look up its self-cleavage: AACACUGCCAAUGCCGGUCCCAAGCCUGGAUAAAAGUCGAGGGGGCGG [C27U G38C]
output: 0.644

input: Returns the measured self-cleavage for the input variant. Input: AACACUGCCAAUGCCGGUCCCAAGCCCGGAUAAUAGGGGAGGGGGCGG [A34U U37G]
output: 0.372

input: # get_value(readout='self-cleavage', item= AGCACUGCCAAUGCCGGUCCCAAGCCCGGAUAAAAGUGGAGGGUGCGG [A2G G44U] )
output: 0.215

input: Please report the recorded self-cleavage for AACACUGCCAACGCCGGUCCCAAGCCCGGAUAAGAGUGGAGGGGGCGG [U12C A34G] .
output: 0.821

input: Quick check: self-cleavage of AACACUGCCAAUGCCGGUCCCAAGCCCGGAUAAUAGUUGAGGGGGCGG [A34U G38U] ?
output: 0.506

input: Requested field: self-cleavage. Item: AUCACUGCCAAUGCCGGUGCCAAGCCCGGAUAAAAGUGGAGGGGGCGG [A2U C19G]
output: 0.0882

input: // query self-cleavage value for entry AACACUGCCAAUGCCGGUCCUAAGCCCGGAUAAAAGUGGAGGUGGCGG [C21U G43U]
output: 0.106

input: Suppose we examine the variant AACACUGCCAAGGCCGGUCCUAAGCCCGGAUAAAAGUGGAGGGGGCGG [U12G C21U] ; what self-cleavage value has been reported?
output: 0.0878

input: Which measured self-cleavage value corresponds to AACACCGCCAAUGCCGGUCCCAAGCCCGGAUAAAAGUGGAGUGGGCGG [U6C G42U] ?
output: 0.107

input: What does the data say about its self-cleavage? Entry: AACACUGCCAAUGCCGGUCCCAAGCCCGGAUAAAAGUCGAGGGCGCGG [G38C G44C]
output: 0.853

input: Quick one: self-cleavage for AACACUGCCAAUGCGGGUCCCAAGCCCGGAUAAAAGUGGAGUGGGCGG [C15G G42U] ?
output: 0.084

input: Form field: reported self-cleavage of AACACUGCAAAUGUCGGUCCCAAGCCCGGAUAAAAGUGGAGGGGGCGG [C9A C14U]
output: 0.697

input: State the recorded self-cleavage for this entry: AACACUGCCAAUGCCGGUCCCAAGCCCGGAUAAAGGUGGAGGCGGCGG [A35G G43C]
output: 0.16

input: Look at this variant and give its reported self-cleavage. AACACUGUCCAUGCCGGUCCCAAGCCCGGAUAAAAGUGGAGGGGGCGG [C8U A10C]
output: 0.755
